Reported values of pEC50 for individual entries
Molecular target: human APJ receptor (Homo sapiens (Human))
Sequence (P35414 whole entry): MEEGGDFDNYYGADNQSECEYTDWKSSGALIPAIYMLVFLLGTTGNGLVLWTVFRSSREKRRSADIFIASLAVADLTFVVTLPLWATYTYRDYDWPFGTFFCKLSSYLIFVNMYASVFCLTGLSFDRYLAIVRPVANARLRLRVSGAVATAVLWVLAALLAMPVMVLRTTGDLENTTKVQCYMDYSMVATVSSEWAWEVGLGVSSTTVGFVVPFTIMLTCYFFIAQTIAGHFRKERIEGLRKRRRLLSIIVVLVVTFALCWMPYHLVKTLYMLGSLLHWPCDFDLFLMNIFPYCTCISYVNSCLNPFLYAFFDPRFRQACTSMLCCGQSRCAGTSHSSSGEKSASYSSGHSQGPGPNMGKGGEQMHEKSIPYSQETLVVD
Experiment: Intracellular cAMP accumulation assay (APJ hcAMP, HTRF)
Assay type: cell-based
Details: HEK293 cells stably expressing human APJ receptor; inhibition of forskolin-mediated cAMP production; read-out: hAPJ cAMP EC50 Potency range
pEC50: −log10 of the molar value.

In the examples that follow, each entry is paired with its recorded pEC50.
[
  {
    "Compound": "CCCCc1nc(O)c(-c2nnc(CNC(=O)OC(C)(C)C)o2)c(O)c1-c1c(OC)cccc1OC",
    "Target Or Test System": "human APJ receptor (Homo sapiens (Human))",
    "Recorded Endpoint": "pEC50",
    "Readout Value": "7.00 to 8.00"
  },
  {
    "Compound": "CCCCc1nc(O)c(-c2nnc(Cc3noc4ccccc34)o2)c(O)c1-c1c(OC)cc(C)cc1OC",
    "Target Or Test System": "human APJ receptor (Homo sapiens (Human))",
    "Recorded Endpoint": "pEC50",
    "Readout Value": "8.00 to 11.00"
  }
]

As a next step, examine the compound that follows.
The reported human APJ receptor (Homo sapiens (Human)) pEC50 of COc1cccc(OC)c1-c1c(C2CC2)nc(O)c(-c2nnc(Cc3nc(-c4ccccn4)no3)o2)c1O is 8.00 to 11.00

* * *

Biological target: UniProtKB P35414
Assay: Intracellular cAMP accumulation assay (APJ hcAMP, HTRF)
Format: cell-based
Details: HEK293 cells stably expressing human APJ receptor; inhibition of forskolin-mediated cAMP production; read-out: hAPJ cAMP EC50 Potency range
Reported values of EC50 for individual entries

In the examples that follow, each entry is paired with its recorded EC50.
[
  {
    "Compound Smiles": "CCCCc1nc(O)c(-c2nnc(Cc3nc(-c4ccccc4)sc3C)o2)c(O)c1-c1c(OC)cccc1OC",
    "Recorded Endpoint": "EC50",
    "Readout Value": "0.01 to 10 nM"
  },
  {
    "Compound Smiles": "CCCCc1nc(O)c(-c2nnc(Cc3noc4ccccc34)o2)c(O)c1-c1c(Cl)cccc1Cl",
    "Recorded Endpoint": "EC50",
    "Readout Value": "0.01 to 10 nM"
  },
  {
    "Compound Smiles": "CCCCc1nc(O)c(-c2nnc(CCc3nc4ccccc4n3C)o2)c(O)c1-c1c(OC)cccc1OC",
    "Recorded Endpoint": "EC50",
    "Readout Value": "0.01 to 10 nM"
  },
  {
    "Compound Smiles": "CCCCc1nc(O)c(-c2nnc(Cc3nc(-c4cccnc4)no3)o2)c(O)c1-c1c(OC)cccc1OC",
    "Recorded Endpoint": "EC50",
    "Readout Value": "0.01 to 10 nM"
  },
  {
    "Compound Smiles": "CCCCc1nc(O)c(-c2nnc(Cc3ccc(Cl)cc3F)o2)c(O)c1-c1c(OC)cccc1OC",
    "Recorded Endpoint": "EC50",
    "Readout Value": "0.01 to 10 nM"
  }
]

Short answer for CCOCc1nc(O)c(-c2nnc(Cn3ccc4ccccc43)o2)c(O)c1-c1c(OC)cccc1OC : EC50 was 10 to 100 nM

Short answer for CCOCc1nc(O)c(-c2nnc(CNC(=O)c3ccccc3)o2)c(O)c1-c1c(OC)cccc1OC : EC50 was 0.01 to 10 nM

All figures here come from patent US10336739B2.
